Reported inhibition by item:
System: Helix pomatia
assay explanation: Inhibition of snail beta-mannosidase using p-nitrophenyl glycoside as substrate assessed as release of p-nitrophenol at 1000 uM measured by spectrometric assay relative to control
recorded metric: inhibition (%)

>>> recorded_number("CCCCCCC[C@]1(CO)NC[C@H](O)[C@@H](O)[C@@H]1O.Cl")
8.5
>>> recorded_number("CCCCCCCCCCCC[C@@]1(CO)NC[C@H](O)[C@@H](O)[C@@H]1O.Cl")
0.5
>>> recorded_number("CCCCCCCCCC[C@@]1(CO)NC[C@H](O)[C@@H](O)[C@@H]1O.Cl")
0
>>> recorded_number("CCCCCC[C@@]1(CO)NC[C@H](O)[C@@H](O)[C@@H]1O.Cl")
2.8
>>> recorded_number("CCCC[C@@]1(CO)NC[C@H](O)[C@@H](O)[C@@H]1O.Cl")
3
>>> recorded_number("C[C@@]1(CO)NC[C@H](O)[C@@H](O)[C@@H]1O.Cl")
2
>>> recorded_number("CCCCCCCCCCC[C@@]1(CO)NC[C@H](O)[C@@H](O)[C@@H]1O.Cl")
0
>>> recorded_number("CCCCCCCCC[C@@]1(CO)NC[C@H](O)[C@@H](O)[C@@H]1O.Cl")
0.6
>>> recorded_number("CCCCC[C@@]1(CO)NC[C@H](O)[C@@H](O)[C@@H]1O.Cl")
4
>>> recorded_number("CCCCCCCC[C@@]1(CO)NC[C@H](O)[C@@H](O)[C@@H]1O.Cl")
4.9
>>> recorded_number("CC[C@]1(CO)NC[C@H](O)[C@@H](O)[C@@H]1O.Cl")
1.1
>>> recorded_number("CCCCCCCCCCC[C@]1(CO)NC[C@H](O)[C@@H](O)[C@@H]1O.Cl")
0
>>> recorded_number("C[C@]1(CO)NC[C@H](O)[C@@H](O)[C@@H]1O.Cl")
2
>>> recorded_number("CCCCCCCC[C@]1(CO)NC[C@H](O)[C@@H](O)[C@@H]1O.Cl")
0.5
>>> recorded_number("CCCCCCC[C@@]1(CO)NC[C@H](O)[C@@H](O)[C@@H]1O.Cl")
0
>>> recorded_number("CCCCC[C@]1(CO)NC[C@H](O)[C@@H](O)[C@@H]1O.Cl")
4
>>> recorded_number("CCC[C@]1(CO)NC[C@H](O)[C@@H](O)[C@@H]1O.Cl")
1.5
>>> recorded_number("OC[C@H]1NC[C@H](O)[C@@H](O)[C@@H]1O")
4.8
>>> recorded_number("CC[C@@]1(CO)NC[C@H](O)[C@@H](O)[C@@H]1O.Cl")
1.1
>>> recorded_number("CCCCCCCCC[C@]1(CO)NC[C@H](O)[C@@H](O)[C@@H]1O.Cl")
2.5
>>> recorded_number("CCCC[C@]1(CO)NC[C@H](O)[C@@H](O)[C@@H]1O.Cl")
16.5
>>> recorded_number("CCCCCCCCCC[C@]1(CO)NC[C@H](O)[C@@H](O)[C@@H]1O.Cl")
0

----------
Reported IC50 by item:
assay explanation: Inhibition of bovine liver beta-galactosidase using p-nitrophenyl glycoside as substrate assessed as release of p-nitrophenol measured by spectrometric assay
Format: tissue-based, Bos taurus
details: read-out: IC50
recorded metric: IC50 (µM)

>>> recorded_number("CCCCCCCCCC[C@@]1(CO)NC[C@H](O)[C@@H](O)[C@@H]1O.Cl")
43
>>> recorded_number("CCCCCCCCC[C@@]1(CO)NC[C@H](O)[C@@H](O)[C@@H]1O.Cl")
29
>>> recorded_number("CCCCCCCCCCC[C@]1(CO)NC[C@H](O)[C@@H](O)[C@@H]1O.Cl")
70
